Below is a list of entries, each paired with its recorded protein stability index value.
B1: FUT8 (parent)
chain: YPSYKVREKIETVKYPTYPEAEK

- Variants of: B1
- test.method.notes: protein stability index of a GFP-peptide fusion (GPS, HEK-293T) (PSI 1-6); higher = more stable;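 note: lentivirally expressed fusions sorted by FACS into six bins by GFP to DsRed ratio, PSI derived from sequencing read proportions per bin multiplied by bin number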
- condition.parameters: c terminus: native
quantity.measured: protein stability index

variant.string	quantity.measured	value.observed
R7N	protein stability index	4.59
Y4E	protein stability index	4
E11F	protein stability index	3.15
E8D	protein stability index	4.26
K23R	protein stability index	1.82
Y15H	protein stability index	4.72
Y15S	protein stability index	4.64
E20N	protein stability index	4.41
E8C	protein stability index	2.62
E20D	protein stability index	4.62
E8A	protein stability index	3.96
Y4F	protein stability index	4.64
E22F	protein stability index	4.11
P19I	protein stability index	3.59
E11Y	protein stability index	3.44
E22A	protein stability index	3.28
K14Y	protein stability index	3.43
P2E	protein stability index	4.52
P16F	protein stability index	4.79
Y18Q	protein stability index	4.54
Y1N	protein stability index	5.08
E8M	protein stability index	2.69
